assayed_target: HDAC-1 (Homo sapiens)
Sequence (Q13547 whole entry, species assumed): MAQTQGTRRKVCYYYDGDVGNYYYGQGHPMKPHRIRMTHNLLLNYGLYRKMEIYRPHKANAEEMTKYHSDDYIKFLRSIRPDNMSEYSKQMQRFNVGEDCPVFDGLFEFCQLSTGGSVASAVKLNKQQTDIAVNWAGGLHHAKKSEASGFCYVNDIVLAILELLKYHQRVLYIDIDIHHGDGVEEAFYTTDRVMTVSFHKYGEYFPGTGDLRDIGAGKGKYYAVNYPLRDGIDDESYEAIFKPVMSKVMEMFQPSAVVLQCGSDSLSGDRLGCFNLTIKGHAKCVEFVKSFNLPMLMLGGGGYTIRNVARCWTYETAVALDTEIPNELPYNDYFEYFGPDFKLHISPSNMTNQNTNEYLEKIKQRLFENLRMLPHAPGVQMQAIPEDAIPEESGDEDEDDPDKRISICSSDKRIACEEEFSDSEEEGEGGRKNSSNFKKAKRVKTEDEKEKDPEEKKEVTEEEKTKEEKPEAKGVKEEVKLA
readout: IC50 (nM)
Write the answer as a number in nM, unit excluded.

Example results:
compound_structure_string | assayed_target | IC50, nM
O=C(/C=C/c1ccc([C@@H]2CCCN2CCn2cccn2)cc1)NO | HDAC-1 (Homo sapiens) | 42
Cc1nn(CC2CCOCC2)c(C)c1CCN1CCC[C@H]1c1ccc(/C=C/C(=O)NO)cc1 | HDAC-1 (Homo sapiens) | 3.2
O=C(/C=C/c1ccc([C@@H]2CCCN2CCc2ccc(F)cc2)cc1)NO | HDAC-1 (Homo sapiens) | 8
O=C(/C=C/c1ccc([C@@H]2CCCCN2CCc2cnn3ccccc23)cc1)NO | HDAC-1 (Homo sapiens) | 4
Cc1ccn(CCN2CCC[C@H]2c2ccc(/C=C/C(=O)NO)cc2)n1 | HDAC-1 (Homo sapiens) | 55
Cc1[nH]nc(C(C)(C)C)c1CCN1CCC[C@H]1c1ccc(/C=C/C(=O)NO)cc1 | HDAC-1 (Homo sapiens) | 1
CC(C)(C)n1nnc(CCN2CCC[C@H]2c2ccc(/C=C/C(=O)NO)cc2)n1 | HDAC-1 (Homo sapiens) | 42

Here's the next entry for you.
Considering O=C(/C=C/c1ccc([C@@H]2CCCN2CCc2nnnn2-c2ccc([N+](=O)[O-])cc2)cc1)NO , its IC50 with HDAC-1 (Homo sapiens) was recorded as 170
